The reported numbers originate from ChEMBL document CHEMBL4312011.

- assay.procedure: Microsomal stability in human liver microsomes assessed as parent compound remaining at 2 uM incubated for 30 mins by RF-MS analysis
- Assay type: ADME, Microsome
- conditions.used: read-out: Stability
Below, each entry is listed with its recorded remaining at 0.5 h, 2 µM.
assay.readout: remaining at 0.5 h, 2 µM (%)

molecule	assay.readout	data.value
C[C@H]1[C@H](C)CC[C@]2(C(=O)O)CC[C@]3(C)C(=CC[C@@H]4[C@@]5(C)CC(Br)C(=O)C(C)(C)[C@@H]5CC[C@]43C)[C@H]12 (some centres not stated)	remaining at 0.5 h, 2 µM	80.7
CC(C)[C@@H]1CC[C@]2(C(=O)O)CC[C@]3(C)[C@H](CC[C@@H]4[C@@]5(C)Cc6sc(N)nc6C(C)(C)[C@@H]5CC[C@]43C)[C@@H]12	remaining at 0.5 h, 2 µM	93.4
CC1(C)CC[C@]2(C(=O)O)CC[C@]3(C)C(=CC[C@@H]4[C@@]5(C)Cc6sc(N)nc6C(C)(C)[C@@H]5CC[C@]43C)[C@@H]2C1	remaining at 0.5 h, 2 µM	90
C[C@H]1[C@H](C)CC[C@]2(C(=O)O)CC[C@]3(C)C(=CC[C@@H]4[C@@]5(C)CC(SC#N)C(=O)C(C)(C)[C@@H]5CC[C@]43C)[C@H]12 (some centres not stated)	remaining at 0.5 h, 2 µM	54.9
CC(C)[C@@H]1CC[C@]2(C(=O)O)CC[C@]3(C)[C@H](CC[C@@H]4[C@@]5(C)CC(SC#N)C(=O)C(C)(C)[C@@H]5CC[C@]43C)[C@@H]12 (some centres not stated)	remaining at 0.5 h, 2 µM	35.5
C=C(C)[C@@H]1CC[C@]2(C(=O)O)CC[C@]3(C)[C@H](CC[C@@H]4[C@@]5(C)CC(SC#N)C(=O)C(C)(C)[C@@H]5CC[C@]43C)[C@@H]12 (some centres not stated)	remaining at 0.5 h, 2 µM	86.4
C=C(C)[C@@H]1CC[C@]2(C(=O)O)CC[C@]3(C)[C@H](CC[C@@H]4[C@@]5(C)Cc6sc(N)nc6C(C)(C)[C@@H]5CC[C@]43C)[C@@H]12	remaining at 0.5 h, 2 µM	26

* * *

Parameter: remaining at 0.5 h, 2 µM. Scope: all listed entries.
- assay.procedure: Stability in human plasma assessed as parent compound remaining at 2 uM incubated for 30 mins by RF-MS analysis
- Assay type: ADME, cell-free
- conditions.used: read-out: Stability
assay.readout: remaining at 0.5 h, 2 µM (%)

compound	data.value
CC(C)[C@@H]1CC[C@]2(C(=O)O)CC[C@]3(C)[C@H](CC[C@@H]4[C@@]5(C)CC(SC#N)C(=O)C(C)(C)[C@@H]5CC[C@]43C)[C@@H]12 (some centres not stated)	94.6
CC1(C)CC[C@]2(C(=O)O)CC[C@]3(C)C(=CC[C@@H]4[C@@]5(C)Cc6sc(N)nc6C(C)(C)[C@@H]5CC[C@]43C)[C@@H]2C1	99.2
C=C(C)[C@@H]1CC[C@]2(C(=O)O)CC[C@]3(C)[C@H](CC[C@@H]4[C@@]5(C)CC(SC#N)C(=O)C(C)(C)[C@@H]5CC[C@]43C)[C@@H]12 (some centres not stated)	75.9
C[C@H]1[C@H](C)CC[C@]2(C(=O)O)CC[C@]3(C)C(=CC[C@@H]4[C@@]5(C)CC(SC#N)C(=O)C(C)(C)[C@@H]5CC[C@]43C)[C@H]12 (some centres not stated)	100
CC(C)[C@@H]1CC[C@]2(C(=O)O)CC[C@]3(C)[C@H](CC[C@@H]4[C@@]5(C)Cc6sc(N)nc6C(C)(C)[C@@H]5CC[C@]43C)[C@@H]12	99.6
C=C(C)[C@@H]1CC[C@]2(C(=O)O)CC[C@]3(C)[C@H](CC[C@@H]4[C@@]5(C)Cc6sc(N)nc6C(C)(C)[C@@H]5CC[C@]43C)[C@@H]12	99.2
C[C@H]1[C@H](C)CC[C@]2(C(=O)O)CC[C@]3(C)C(=CC[C@@H]4[C@@]5(C)CC(Br)C(=O)C(C)(C)[C@@H]5CC[C@]43C)[C@H]12 (some centres not stated)	98.2

* * *

- assay.procedure: Permeability of compound in PBS buffer assessed as permeability coefficient at pH 7.4 incubated for 18 hrs by PAMPA based RF-MS analysis
- Type: ADME
- conditions.used: pH 7.4, 18 h

compound	log(permeability)
C=C(C)[C@@H]1CC[C@]2(C(=O)O)CC[C@]3(C)[C@H](CC[C@@H]4[C@@]5(C)Cc6sc(N)nc6C(C)(C)[C@@H]5CC[C@]43C)[C@@H]12	-5.34
CC1(C)CC[C@]2(C(=O)O)CC[C@]3(C)C(=CC[C@@H]4[C@@]5(C)Cc6sc(N)nc6C(C)(C)[C@@H]5CC[C@]43C)[C@@H]2C1	-7.16
C[C@H]1[C@H](C)CC[C@]2(C(=O)O)CC[C@]3(C)C(=CC[C@@H]4[C@@]5(C)CC(Br)C(=O)C(C)(C)[C@@H]5CC[C@]43C)[C@H]12 (some centres undefined)	-4.93
CC(C)[C@@H]1CC[C@]2(C(=O)O)CC[C@]3(C)[C@H](CC[C@@H]4[C@@]5(C)Cc6sc(N)nc6C(C)(C)[C@@H]5CC[C@]43C)[C@@H]12	-5.34

* * *

- assay.procedure: Stability in human plasma assessed as parent compound remaining at 2 uM incubated for 15 mins by RF-MS analysis
- Format: ADME, cell-free
- conditions.used: read-out: Stability

molecule	remaining at 0.25 h, 2 µM
C=C(C)[C@@H]1CC[C@]2(C(=O)O)CC[C@]3(C)[C@H](CC[C@@H]4[C@@]5(C)CC(SC#N)C(=O)C(C)(C)[C@@H]5CC[C@]43C)[C@@H]12 (some centres undefined)	99%
CC1(C)CC[C@]2(C(=O)O)CC[C@]3(C)C(=CC[C@@H]4[C@@]5(C)Cc6sc(N)nc6C(C)(C)[C@@H]5CC[C@]43C)[C@@H]2C1	99.4%
C[C@H]1[C@H](C)CC[C@]2(C(=O)O)CC[C@]3(C)C(=CC[C@@H]4[C@@]5(C)CC(Br)C(=O)C(C)(C)[C@@H]5CC[C@]43C)[C@H]12 (some centres undefined)	98.5%
CC(C)[C@@H]1CC[C@]2(C(=O)O)CC[C@]3(C)[C@H](CC[C@@H]4[C@@]5(C)Cc6sc(N)nc6C(C)(C)[C@@H]5CC[C@]43C)[C@@H]12	99.3%

* * *

- assay.procedure: Stability in human plasma assessed as parent compound remaining at 2 uM incubated for 15 mins by RF-MS analysis
- Format: ADME, cell-free
- conditions.used: read-out: Stability
assay.readout: remaining at 0.25 h, 2 µM

compound	data.value
C[C@H]1[C@H](C)CC[C@]2(C(=O)O)CC[C@]3(C)C(=CC[C@@H]4[C@@]5(C)CC(SC#N)C(=O)C(C)(C)[C@@H]5CC[C@]43C)[C@H]12 (stereo partly drawn)	99.2%
CC(C)[C@@H]1CC[C@]2(C(=O)O)CC[C@]3(C)[C@H](CC[C@@H]4[C@@]5(C)CC(SC#N)C(=O)C(C)(C)[C@@H]5CC[C@]43C)[C@@H]12 (stereo partly drawn)	99.5%
C=C(C)[C@@H]1CC[C@]2(C(=O)O)CC[C@]3(C)[C@H](CC[C@@H]4[C@@]5(C)Cc6sc(N)nc6C(C)(C)[C@@H]5CC[C@]43C)[C@@H]12	99.5%

* * *

- assay.procedure: Chemical stability of compound in PBS buffer assessed as parent compound remaining at 2 uM at pH 7.4 and 37 degC incubated for 60 mins by RF-MS analysis
- Type: physicochemical
- conditions.used: read-out: Stability
Binary call on remaining at 1 h, 2 µM with cut-off 90%: strictly below means Condition met, and equality or higher means Condition not met.

molecule	group.label
C=C(C)[C@@H]1CC[C@]2(C(=O)O)CC[C@]3(C)[C@H](CC[C@@H]4[C@@]5(C)CC(SC#N)C(=O)C(C)(C)[C@@H]5CC[C@]43C)[C@@H]12 (some centres not stated)	Condition met
CC1(C)CC[C@]2(C(=O)O)CC[C@]3(C)C(=CC[C@@H]4[C@@]5(C)Cc6sc(N)nc6C(C)(C)[C@@H]5CC[C@]43C)[C@@H]2C1	Condition met
C[C@H]1[C@H](C)CC[C@]2(C(=O)O)CC[C@]3(C)C(=CC[C@@H]4[C@@]5(C)CC(SC#N)C(=O)C(C)(C)[C@@H]5CC[C@]43C)[C@H]12 (some centres not stated)	Condition met
CC(C)[C@@H]1CC[C@]2(C(=O)O)CC[C@]3(C)[C@H](CC[C@@H]4[C@@]5(C)Cc6sc(N)nc6C(C)(C)[C@@H]5CC[C@]43C)[C@@H]12	Condition met
C[C@H]1[C@H](C)CC[C@]2(C(=O)O)CC[C@]3(C)C(=CC[C@@H]4[C@@]5(C)CC(Br)C(=O)C(C)(C)[C@@H]5CC[C@]43C)[C@H]12 (some centres not stated)	Condition not met
